test method notes: yeast display, Sf9 membrane polyspecificity reagent, FACS + sequencing; frameworks hold sequencing errors
property: polyreactivity (PSR sort gate)

• QVQLVESGGGLVQAGGSLRLSCAASGRTFARYVMGWYRQAPGKERELVAAISGGGGSTYYADSVKGRFTISRDNAKNTVYLQMNSLKPEDTAVYYCAAVPEGPNTGDDANGLDYWGQGTQVTVSS = low polyreactivity
• QVQLVESGGGLVQAGGSLRLSCAASGFIFYGYVMGWYRQAPGKERELVAAITYNGGRTYYADSVKGRFTISRDNAKNTVYLQMNSLKPEDTAVYYCAALGYDGDYDYWGQGTQVTVSS = low polyreactivity
• QDLLVDSGGGLLQAGGSLRLSCAASGSIFYTNTMGWYRHAPGKERALVAAISYSDSTTYYADSVKGRFTISRDNAKNSVYLQMNSLKPEDTAVYYCAAQQFYTYYQTYDYWGQGTQVTVSS = high polyreactivity
• QVQLVESGGGLVQAGGSLRLSCAASGRIFSFYAMGWYRQSPGKERELVATISDGGATTYYADSVKGRFTISRDNAKNTVYLQMNSLKPEDTAVYYCAADKRGRPGLPDYDSWGQGTQVTVSS = low polyreactivity
• QVQLVESGGGLFQAGGSLRLSCDASGRNFSGNAMGMYRQAPGKERELVAAITWSGSSTFYADSVKGLFTISRDYAKNTVYFQMNSLKPEDTAVYYCAVDSSSPVRPHSDEDYWGQGTQVTVSS = low polyreactivity
• QVQLVESRGGLVQAGGSLRLSCAASGITFYTYTMGWYRQAPGKERELVAVISASGARTYYADSVKGRFTISRDNAKNTVYLQMNSLKPEDTAVYYFAARSFYISPWRFDYWGQGTQVTVSS = high polyreactivity
• QVQLVESGGGLVQAGGSLRLSCAASGRTFYVYVMGWYRQAPGKEREFVAAINYGSTYYADSVKGRFTISRDNAKNTVYLQMNSLIPEDTAVYYLGQGTQVTVSS = low polyreactivity
• QVQRVETGGGLVQAAGSLRLSCAASGRTFRNYAMGWYRQAPGKERELVAAIRSGVRTYYADSVKGRFTISRDNAKNTVYLQMNSVKPEDTAVYYCAVATGLLYKSHGYCGQGTQVTVSS = low polyreactivity
• QVQLVESGGGLVQAGGSLRLSCAASGSTYRLYTMGWYRQAPGKERELVAAITSGGSTNYADSVKGRFTISRDNAKNTVYLQMYSLKPEDTAVYYCAKAKRFPSFDYWGQGTQVTVSS = low polyreactivity
• QVQLVESGGGLVQAGGSLRLSCDASGRTSRWNAMGCYRQAPGKERELVAAISSGSSTTYADSVKGRFTISRDNAKNTVYLQMNSLKPEATAVYYCNAKSGSRFVYRRYYTYNSWGQGTQVTVSS = high polyreactivity

// switching to the query sequence
Which measured polyreactivity (PSR sort gate) value corresponds to `QVQLVDSGGGLVQAGGSLRLRCAASGRTFTPYAMGWYRQAPGQERELVATISSGTSTNYADSVKGRFTISRDNAKNTVYLQMNSLKPEDTAVYDCAADGYTYKFDYWGQGTQVTVSS` ?
low polyreactivity

###

test method notes: yeast display, Sf9 membrane polyspecificity reagent, FACS + sequencing; frameworks hold sequencing errors
property: polyreactivity (PSR sort gate)

These solved cases illustrate the format of a correct answer.
* QVQILESGGGLVQAGGSLRLSCAASGFTFTGYALGWYSQAPGKERELVAAINARATSTYYADSVKGRFTISRDNAMNHVYLQIKSLIPEDTAVYFCAATFYRRYVDLGYWGQCTQVTVSS | high polyreactivity
* QVQLVESGGGLVQAGGSLRLSCAASGSIFRPYAMGWYRQAPGKERELVAAISWRSGRTYYADSVKGRFTISRDNAKNTVYLQMNSLKPEDTAVYYCAADLASYAYRYDYWGQGTQVTVSS | high polyreactivity
* QVQLVESGGGLVQAGGSLRLSCAASGRIFAWNDMGWYRQAPGKERELVAAITSGGSTYYADSVKGRFTISRDNAKNTVYLQMNSLKPEDTAVYYCAADRVRRNDKLAYDYWGQGTQVTVSS | low polyreactivity
* QVQLVESGGGLVQAGGSLRLSCAASGFIFPRYAKGWYRQAPGKERELVAAISKSGGRTYYADSEKGGFTISRDYAKNTFYLQMNSLKPEDTAVYYCADGRISRFSRYYYWGQGTHVTVSS | high polyreactivity
* QVQLVESGGGLVQAGGSRRLSCAASGSTFSSYAKGWYRQAPGQERELVAAISSSGSRTYYADSVKGRFTISRDNAKNTVYLQMNSLKPEDTAVYYCAADYYYNTKLDYWGQGSQVTVSS | high polyreactivity
* QVQLVESGGGLVQAGGSLRLSCAASGRIFDQNAMGWYRQAPGKDRELVAAISSSGGRTYYADSVKGRFTISRDNAKNPVYLQMNSLKPEDTAVYYCNKDRTVTTYEYWGQGTQVTVSS | high polyreactivity

Entry under review: `QVQLVESGGGLVQAGGSLRLSCAASGRIFKSYVMGWYRQATGKERELVAAITRTGGSTYYADSVKGRFTISRDNAKNTVYLQMNSLKPVDTAVYYCNARYSWPRATWYDYWGQGTQVTVSS` . Reported polyreactivity (PSR sort gate)?
high polyreactivity

What value of measured polyreactivity (PSR sort gate) is listed for `QVQLVESGGGLVQAGGSLRLSCAASGFIFGLYAMGWYRQAPGKERELVAAISSGGSTYYADSVKGRFTISRDNAKNTVYLQMNSLKPEDTAVYYCAAYYVYSEYDYWGQGTQVTVSS` ?
high polyreactivity

Quick one: polyreactivity (PSR sort gate) of `QVQLVESGGGLVQAGGSLRLSCAASGSTFPTYGMGWYRQAPGKEREFVARINWNGGGTYYADSVKGRFTISRDNAKNTVYLQMNSLKPEDTAVYYCNARKRGARFILGYDYWGQGTQVTVSS` ?
low polyreactivity

Fill in: polyreactivity (PSR sort gate) of `QVQLVESVGGLDQAGGSLRLSCAASGFILSWYAMGWYRQAPGKERELVAGISRRGGSTYYADSVTGRFTISRDNAKNTVYLQMNSLKPEDTAVYYCNALYDEWSVSTGDYWGQGTQVTVSS` is ___
high polyreactivity

May I ask what polyreactivity (PSR sort gate) has been recorded for `QVQLVESGGGLVQAGGSLRLSCAASGSILGYYAMGLYRQAPGKERELVAAISGRGGSTYYADSLKGRFTISRDNAKNTVYLQMNSLKPEDTAVYYCAKRSVWRGWGQGTQVTVSS` ?
high polyreactivity

###

test method notes: yeast display, Sf9 membrane polyspecificity reagent, FACS + sequencing; frameworks hold sequencing errors
property: polyreactivity (PSR sort gate)

- QVQLVESGGGLVQAGGSLRLSCAASGRTFYANDMGWYRQAPGKERELVAAISSSVTSTHYADSVKGRFTISRDNAKNTVYLQMNSLKPEDTAVYYCNKDPIREVPPPGPSEMDYWGQGTQVTVSS: low polyreactivity
- QVQLVESGGGLVQAGGSLRLSCAASGFTFAAYAMGWYRPAPGKERELVAAITSRDGTTYYADSVKGRFTISRNNAKNTVYLQMNSLKPEDTAVYYGAKDHFTWGVSEDDYWRQGTQVTVSS: low polyreactivity

###

test method notes: yeast display, Sf9 membrane polyspecificity reagent, FACS + sequencing; frameworks hold sequencing errors
property: polyreactivity (PSR sort gate)

Recorded results for 10 sequences are shown here.
- QVQLVESGGGLVQAGGSLRLSCAASGFIFPFYAMGWYRQAPGKERELVAGIRGVGSTNYADSVKGRFTISRDNAKNTVYLQMNSLKPEDTAVYYCNKELYDFKDRNLTAFLLRIFDSWGQGTQVTVSS: low polyreactivity
- QVHLVESGGGLVQAGGSLRLSFAASGRTFRGNDMGWYRQAPGKERELVATITRNGGSTRYADSVKGRFTISRDNAKNNVYLQMNSLKPEDSAVYYCNARSRYFGYDYWGQGTQVTVSS: high polyreactivity
- QVQLVESGGGLVQVGGSLRLSCAASGITLSYYAMGWYRQAPGKERELVASITVSRTSTYYADSVKGRFTISRDNAKNSVYLQMNSLKPEDTAVYYCAAYAYQYRFSGYGYWGQGTQVTVSS: low polyreactivity
- QVQLVESGGGLVQAGGILRLSCAASGSIFQRYVMGWYRQAPGKAREFVAGITRSGGSTYYADSVKGRFTISRDNAKNTVYLPMNSQKPEDTAVYNCAAALVRGTYKYDYWGQGTQVTFSS: high polyreactivity
- QVQLQESGRRPGAAGGSPRISCAASGYIFWVAVMGRYRQAPGKDRELVASIGFGCTTYYADSVKCRFTISRDNAKNSVYLQMISLKPEDTAVYYCAAPHYDWGELDYWGQGTQVPVSS: low polyreactivity
- QVQLVESGGGLVQAGGSLRLSCAASGIIFYRYAMGWYRQAPGKERELVAAISSSGTNTYYADSVKGRFTISRDNAKNTVYLQMNSLKPEDTAVYYCNSDTWADRSTYDYWGQGTQVTVSS: low polyreactivity
- QVQLVESGGGLVQAGGSLRLSCAASGRTFGYYAMGWYRQAPGKERELVAAISKSGGRTYYADSVKGRFTISRDNAKNTVYLQMNSLKPEDTAVYYCAADGGAIVPYYENYYWGQGTQVTVSS: high polyreactivity
- QVQLVESGGGLVQAGGSLRLSCAASGSIFTLYSMGWYRQAPGKERELVATINWSGGSTSYADSVKGRFTISRDNAKYTVYLQMNSLKADDTAVYYCAADYYFWHGTGYDYWGQGTQVNVSS: low polyreactivity
- QVQLVESGGGLVQAGGSLRLICAASGRTFTRYAMGWYRQAAGKERELVAAITSTGSTYYADSVKGRFTISRDNAKNTVYLQMNSLKPEDTAVYYCNKVGIRYYYGYDYWGQGTQVTVSS: high polyreactivity
- QVQLVESGGGLVQAGGSLRLSCAASGRTFYKYAMGWYIQAPGKERELVARISGRGGRTYYADSVKGRFTISRDNAKNTVYLQMNSLKPEDTEVYYCASDWVPINVKSLVVTYDYWGQGTQVTVSS: low polyreactivity

Requested field: polyreactivity (PSR sort gate). Item: `QVQLVESGGGLVQAGGSLRLSCAASGRIFEVYTMGWYRQAPGKERELVAAIDRSTGSTYYADSVKGRFTISRDNAKNTVYLQMNSLKPEDTAVYYCAARGTFLGTRPLGRFDYWGQGTQVTVSS`
low polyreactivity

Recorded values, source the nanobody polyreactivity screen of Harvey et al. (2022).
